Test system: cardiac tissues bioprinted using dECM-rGO bioink (hiPSC-derived cardiomyocytes and HS27A stromal cells)
Method: Cisapride cardiotoxicity dose response, FluoVolt imaging, tissues printed with dECM-rGO bioink
Type: cell-based
Stated Conditions: Homo sapiens, HS-27A, Day 14 of culture, 45 min cisapride, read-out: IC50 (APD90)
Assay Readout: pIC50
Numbers only, as −log10 of the molar value.

Qu. Data request, read-out pIC50, for COc1cc(N)c(Cl)cc1C(=O)NC1CCN(CCCOc2ccc(F)cc2)CC1OC (stereo not shown) [cisapride]
Ans. 8.60
